Quick reference for koff among some binders
molecular target: T1, cynomolgus PD-L1-His (Sino Biological, Cat. 90251-C08H) (cynomolgus, UniProt Q9NZQ7 19-238 (human entry)); assay: BLI (Gator), cynomolgus PD-L1
T1 construct: Bought protein; also called Cyno PD-L1; Cynomolgus PD-L1 ECD-His; not shown: His tag
T1 sequence (Q9NZQ7 other isoform, or with tags, fused parts or gaps C08H C08H limits assumed): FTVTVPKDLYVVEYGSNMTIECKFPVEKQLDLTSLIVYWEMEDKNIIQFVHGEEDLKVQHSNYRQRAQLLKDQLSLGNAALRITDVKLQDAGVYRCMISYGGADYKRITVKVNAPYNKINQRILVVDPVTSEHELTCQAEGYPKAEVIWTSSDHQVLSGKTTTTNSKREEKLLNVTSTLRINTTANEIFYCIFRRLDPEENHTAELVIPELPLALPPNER

Here is how some binders turned out for koff.
Note koff for the binder shown: 73C8 (antibody, human IgG1, V domains shown) VH: QEQLEESGGGLVQPEGSLTLTCTVSGFSFSGDYYMSWVRQAPGKGLEWVASIYTGSLNTYYATWAKGRFTISLTSSTTVTLQMTSLTAADTATYFCARRNKNADYGHFDLWGPGTLVTVSS VL: YDMTQTPASVEVAVGGTVTIKCQASQSINDRLAWYQQKPGQPPKLLIYAASTLASGVPSRFRGSGSGTDFTLTISDLECADAATYYCQQGWTVSSLDNAFGGGTEVVAM
≤ 1e-05 s⁻¹

Note koff for the binder shown: 32E2 (antibody, human IgG1, V domains shown) VH: QEQLEESGGDLVKPEGSLTLTCTASGFSFSSSYYMSWVRQAPGMGLEWIASISGGVTDNAYYASWAKGRFTVSKTSSTTVTLQLTSLTAADTATYFCARDSSSGYFFLLWGPGTLVTVSS VL: LVMTQTPSSVSAAVGGTVTINCQASQNIYSNLAWYQQKPGQRPKLLIFGASNLRSGVPSRFKGSGSGTEYTLTISDLECADAATYYCQEGYSIGNVDNPFGGGTEVVVK
7e-05 s⁻¹

Next up:
Note koff for the binder shown: 56E5 (antibody, human IgG1, V domains shown) VH: QEQLEESGGGLVQPEGSLTLTCTASGFSFSGDYYMSWVRQAPGKGLEWIASIYTGSLNTYYATWAKGRFTISLTSSTTVTLQMTSLTAADTATYFCARRHKNADYGHFDLWGPGTLVTVSS VL: YDMTQTPGSVEVAVGGTVTIKCQASQSINDRLAWYQQTPGQPPKLLIYGASTLASGVPSRFKGSGSGTEFTLTISDLECADAATYYCQQGWTVSSLDNAFGGGTEVVAK
≤ 1e-05 s⁻¹

Origin of values: patent US20250171542A1
